- Measured Target: GST-tagged truncated human mutant G2019S LRRK2 (Homo sapiens (Human), UniProt Q5S007, G2019S)
- Sequence (Q5S007 970-2527 G2019S): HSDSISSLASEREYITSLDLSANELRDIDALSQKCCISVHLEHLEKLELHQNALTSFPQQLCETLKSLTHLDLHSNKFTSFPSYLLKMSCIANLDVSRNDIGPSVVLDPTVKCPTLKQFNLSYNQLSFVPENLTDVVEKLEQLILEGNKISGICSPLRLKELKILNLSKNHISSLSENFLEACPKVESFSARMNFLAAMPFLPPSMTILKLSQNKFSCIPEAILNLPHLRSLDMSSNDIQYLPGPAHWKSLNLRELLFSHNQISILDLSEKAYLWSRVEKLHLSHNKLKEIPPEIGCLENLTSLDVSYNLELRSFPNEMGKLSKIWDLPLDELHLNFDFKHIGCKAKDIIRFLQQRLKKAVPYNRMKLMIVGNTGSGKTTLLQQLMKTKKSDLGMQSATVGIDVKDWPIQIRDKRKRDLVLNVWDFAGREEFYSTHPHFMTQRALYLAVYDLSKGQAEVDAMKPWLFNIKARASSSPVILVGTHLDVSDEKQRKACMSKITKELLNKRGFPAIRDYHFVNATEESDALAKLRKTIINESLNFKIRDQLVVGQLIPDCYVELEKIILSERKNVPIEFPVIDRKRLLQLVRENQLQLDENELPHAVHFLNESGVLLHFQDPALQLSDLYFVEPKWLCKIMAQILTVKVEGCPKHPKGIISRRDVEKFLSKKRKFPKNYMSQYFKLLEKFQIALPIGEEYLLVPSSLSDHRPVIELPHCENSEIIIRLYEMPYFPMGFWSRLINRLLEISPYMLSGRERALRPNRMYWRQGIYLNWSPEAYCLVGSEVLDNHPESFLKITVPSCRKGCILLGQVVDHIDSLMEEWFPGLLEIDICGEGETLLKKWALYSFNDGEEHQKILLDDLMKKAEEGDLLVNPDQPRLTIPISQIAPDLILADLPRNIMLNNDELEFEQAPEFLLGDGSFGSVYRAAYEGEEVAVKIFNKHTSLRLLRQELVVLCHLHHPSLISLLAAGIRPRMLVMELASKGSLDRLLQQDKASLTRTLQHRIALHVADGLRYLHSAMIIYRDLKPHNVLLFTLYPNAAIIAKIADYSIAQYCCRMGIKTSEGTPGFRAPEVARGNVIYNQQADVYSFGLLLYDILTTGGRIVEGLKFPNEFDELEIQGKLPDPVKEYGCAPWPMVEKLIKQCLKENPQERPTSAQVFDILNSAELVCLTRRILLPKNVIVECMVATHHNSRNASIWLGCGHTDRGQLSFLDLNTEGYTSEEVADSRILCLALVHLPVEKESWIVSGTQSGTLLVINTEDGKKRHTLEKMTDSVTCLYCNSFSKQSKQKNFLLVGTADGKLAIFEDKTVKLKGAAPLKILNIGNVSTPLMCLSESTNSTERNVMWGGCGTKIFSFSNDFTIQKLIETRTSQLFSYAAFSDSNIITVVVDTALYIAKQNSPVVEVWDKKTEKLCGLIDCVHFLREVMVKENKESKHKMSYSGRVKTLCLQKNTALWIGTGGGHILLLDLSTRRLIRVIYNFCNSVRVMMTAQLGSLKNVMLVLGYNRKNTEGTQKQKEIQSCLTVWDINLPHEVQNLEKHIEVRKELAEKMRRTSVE
- Assay Summary: LRRK2 G2019S Km ATP LanthaScreen assay
- Assay type: biochemical
- Assay Context: G2019S LRRK2, 134 μM ATP (Km ATP), LRRKtide substrate
This listing pairs molecules with measured LRRK2 pIC50.
Endpoint: LRRK2 pIC50

1) Cc1nn(C(C)C)c2c1OC[C@@H]1CC[C@H]1Nc1nc(ncc1Cl)N2    9.60
2) Cn1nc(C2CC2)c2c1OCC1CCC1Nc1nc(ncc1C(F)(F)F)N2 (stereo not shown) [Ex-1.10]    6.58
3) Cc1nn(C2CC2)c2c1OC[C@H]1CC[C@@H]1Oc1nc(ncc1C(F)(F)F)N2    5.16
4) CC1CCOc2c(C3CC3)nn(C)c2Nc2ncc(C(F)(F)F)c(n2)N1 (single isomer, unassigned) [Ex-2.18]    6.65
5) FC(F)(F)c1cnc2nc1N[C@@H]1COC[C@H]1COc1cccc(Br)c1N2    9.12
6) Cc1nn(C)c2c1OCC[C@@H](C)Nc1nc(ncc1C(F)(F)F)N2 (mixture of isomers)    5.45
7) CCn1nc(C)c2c1OCC1(CC1)CNc1nc(ncc1C(F)(F)F)N2    9.07
8) Cc1nn(C)c2c1OC[C@H]1COC[C@H]1Nc1nc(ncc1C(F)(F)F)N2    6.05
9) CC1CCOc2c(C3CC3)nn(C)c2Nc2ncc(C(F)(F)F)c(n2)N1 (single isomer, unassigned) [Ex-2.19]    8.78
10) FC(F)(F)c1cnc2nc1N[C@@H]1COC[C@H]1COc1ncccc1N2    9.08
11) Cc1nn(C)c2c1OCC1(CNc3nc(ncc3C(F)(F)F)N2)CC12CCOCC2 (single isomer, unassigned) [Ex-2.16]    7.93
